Cited source for all entries: patent US20150167004

Molecular target: DNMT3A (Homo sapiens, UniProt Q9Y6K1 Q9Y6K1:1-912)
Sequence (Q9Y6K1 whole entry, one chain of several): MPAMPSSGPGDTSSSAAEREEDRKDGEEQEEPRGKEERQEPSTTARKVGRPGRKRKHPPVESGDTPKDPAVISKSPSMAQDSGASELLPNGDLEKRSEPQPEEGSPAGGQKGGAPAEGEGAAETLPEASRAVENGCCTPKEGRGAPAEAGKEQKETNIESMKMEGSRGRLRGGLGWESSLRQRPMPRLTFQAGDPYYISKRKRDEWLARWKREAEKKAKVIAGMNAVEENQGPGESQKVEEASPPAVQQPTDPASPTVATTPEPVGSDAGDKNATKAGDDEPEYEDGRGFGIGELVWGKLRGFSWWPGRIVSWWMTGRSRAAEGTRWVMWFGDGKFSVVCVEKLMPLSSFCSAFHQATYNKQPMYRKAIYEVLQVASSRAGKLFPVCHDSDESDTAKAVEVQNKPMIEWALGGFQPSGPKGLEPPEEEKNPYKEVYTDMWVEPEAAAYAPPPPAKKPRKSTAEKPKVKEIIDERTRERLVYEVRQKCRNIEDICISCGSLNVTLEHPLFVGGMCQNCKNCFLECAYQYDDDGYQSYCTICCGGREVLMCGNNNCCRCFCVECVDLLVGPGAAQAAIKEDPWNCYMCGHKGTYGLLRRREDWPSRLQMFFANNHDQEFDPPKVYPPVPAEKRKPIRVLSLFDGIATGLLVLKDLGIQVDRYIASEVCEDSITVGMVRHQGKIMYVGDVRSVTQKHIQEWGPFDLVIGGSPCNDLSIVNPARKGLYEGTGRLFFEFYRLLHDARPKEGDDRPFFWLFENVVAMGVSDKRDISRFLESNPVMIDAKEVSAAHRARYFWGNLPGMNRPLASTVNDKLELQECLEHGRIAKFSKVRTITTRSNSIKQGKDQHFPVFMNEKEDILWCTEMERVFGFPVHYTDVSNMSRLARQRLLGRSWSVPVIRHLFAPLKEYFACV
Assay: inhibition; 25 nM DNMT3A, lambda DNA substrate, 1 uM SAM
assay metric: IC50 (µM)
All answers are understood in µM, so give the number only.

1. MTC-424 (dsDNA, 5-aza-5,6-dihydro-dC at 8 of F strand; phosphodiester [F strand: 8]) DNA 1: GTACATGCGCTCCAGA DNA 2: TCTGGAGCGCATGTAC :: 10.2

Query binder follows.
INPUT: Fill in: IC50 of CCTATGCGATCGAGTTTTCTCGATCGCATAGG (structured_DNA, 5-aza-5,6-dihydro-dC at 21 and 25; phosphodiester [21, 25 (5-aza-5,6-dihydro-dC)]) [MTC-422] is ___
OUTPUT: 5.7
